Origin of measurements: patent US20240059712A1

study target: KRAS^G12D protein (Homo sapiens, UniProt P01116, G12D)
Construct: host or cells: Aspc-1 (AsPC-1) cells
Sequence (P01116 1-188 isoform P01116-2 G12D): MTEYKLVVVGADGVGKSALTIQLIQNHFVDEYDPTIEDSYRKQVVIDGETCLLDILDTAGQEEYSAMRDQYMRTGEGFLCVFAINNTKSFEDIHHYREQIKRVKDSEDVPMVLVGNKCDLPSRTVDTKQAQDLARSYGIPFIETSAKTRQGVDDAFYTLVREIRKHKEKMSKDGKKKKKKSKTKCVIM
measurement protocol: Protein degradation study (western blot) in Aspc-1 cells
Type: cell-based
test conditions: Aspc-1 cells; half-maximum degradation concentration; read-out: DC50 of compounds induced Ras G12D protein degradation
quantity measured: DC50

DC50 lookup needed for C#Cc1c(F)ccc2cc(O)cc(-c3ncc4c(N5CC6CCC(C5)N6)nc(OCC5CCN(CCCCCCCCCCC(=O)N6CCC(c7ccc8c(C9CCC(=O)NC9=O)nn(C)c8c7)CC6)C5)nc4c3F)c12 (centres unmarked) , thanks.
< 0.01 µM

DC50 lookup needed for C#Cc1c(F)ccc2cc(O)cc(-c3ncc4c(N5CC6CCC(C5)N6)nc(OC5CCN(CCCCCCCCCCC(=O)N[C@H](C(=O)N6C[C@H](O)C[C@H]6C(=O)N[C@@H](C)c6ccc(-c7scnc7C)cc6)C(C)(C)C)CC5)nc4c3F)c12 , thanks.
0.011 to 0.05 µM

DC50 lookup needed for C#Cc1c(F)ccc2cccc(-c3ncc4c(N5CC6CCC(C5)N6)nc(OCC5(CN6CCC7(CC6)CC(N6CCC(c8ccc9c%10c(cccc8%10)C(=O)N9C8CCC(=O)NC8=O)CC6)C7)CC5)nc4c3F)c12 (centres unmarked) [Compound 14a] , thanks.
< 0.01 µM

DC50 lookup needed for Nc1cc(Cl)c(C(F)(F)F)c(-c2ncc3c(N4CC5CCC(C4)N5)nc(OCC4(CN5CCC6(CC5)CC(N5CCC(c7ccc(NC8CCC(=O)NC8=O)cc7F)CC5)C6)CC4)nc3c2F)c1 (centres unmarked) [Compound 21a] , thanks.
< 0.01 µM

DC50 lookup needed for C#Cc1c(F)ccc2cc(O)cc(-c3ncc4c(N5CC6CCC(C5)N6)nc(OCC5CCN(CCCCCCCCCCC(=O)N[C@H](C(=O)N6C[C@H](O)C[C@H]6C(=O)N[C@@H](C)c6ccc(-c7scnc7C)cc6)C(C)(C)C)C5)nc4c3F)c12 (some centres unmarked) , thanks.
0.011 to 0.05 µM
